Please provide measured Pre-emergence action against VERPE for the entries that follow.
test system: Veronica persica; assay: Pre-emergence herbicidal effect against VERPE; assay type: in vivo; conditions: 1280 g/ha, visual score after 3 weeks, 100% = plants have died, 0% = like control plants
Lab book: enter the figure in %, no units written.

Pre-emergence action against VERPE for CCOC(=O)CSc1nn(-c2cccc(F)c2F)c(-c2ccccc2)c1Br is 100

Pre-emergence action against VERPE for O=C(O)CSc1nn(-c2cccc(F)c2F)c(-c2cncnc2)c1Br is 90

Pre-emergence action against VERPE for O=C(O)CSc1nn(-c2ccccc2)c(-c2cncnc2)c1Br is 100

Pre-emergence action against VERPE for COC(=O)CNC(=O)CSc1nn(-c2ccccc2F)c(-c2cccnc2)c1Br is 90

Pre-emergence action against VERPE for CCOC(=O)CSc1nn(-c2ccccc2F)c(-c2ccc(Cl)nc2)c1Br is 100

Pre-emergence action against VERPE for CCOC(=O)CSc1nn(-c2ccc(F)cc2)c(-c2ccc(F)cc2)c1Br is 100

Pre-emergence action against VERPE for O=C(O)CSc1nn(-c2ccccc2F)c(-c2cc(F)cc(Cl)c2)c1Br is 90

Pre-emergence action against VERPE for COC(=O)CCNC(=O)CSc1nn(-c2ccccc2F)c(-c2cncc(F)c2)c1Br is 100

Pre-emergence action against VERPE for CC(Sc1nn(-c2ccccc2F)c(-c2ccc(F)c(F)c2)c1Br)C(=O)O (stereo not drawn) is 100

Pre-emergence action against VERPE for COC(=O)CN(C)C(=O)CSc1nn(-c2ccccc2F)c(-c2ccc(F)c(F)c2)c1Br is 90

Pre-emergence action against VERPE for CCOC(=O)CSc1nn(-c2ccccc2F)c(-c2cc(Cl)cs2)c1Br is 90

Pre-emergence action against VERPE for O=C(O)CSc1nn(-c2ccccc2F)c(-c2ccc(Cl)nc2)c1Br is 90

Pre-emergence action against VERPE for O=C(O)CSc1nn(-c2ccccc2F)c(-c2ccc(F)c(F)c2)c1Cl is 100

Pre-emergence action against VERPE for O=C(O)CSc1nn(-c2ccccc2F)c(-c2ccc(F)c(F)c2)c1[N+](=O)[O-] is 100

Pre-emergence action against VERPE for CCOC(=O)C[S+]([O-])c1nn(-c2ccccc2F)c(-c2cncc(F)c2)c1Br (stereo not drawn) is 100

Pre-emergence action against VERPE for COC(=O)CNC(=O)CSc1nn(-c2ccccc2F)c(-c2ccccc2)c1Br is 100

Pre-emergence action against VERPE for CCOC(=O)CSc1nn(-c2ccccc2F)c(-c2cncc(Cl)c2)c1Br is 100

Pre-emergence action against VERPE for CCOC(=O)CSc1nn(-c2ccc(F)cc2F)c(-c2ccc(F)cc2)c1Br is 100

---

test system: Setaria viridis; assay: Pre-emergence herbicidal effect against SETVI; assay type: in vivo; conditions: 1280 g/ha, visual score after 3 weeks, 100% = plants have died, 0% = like control plants
Please provide measured Pre-emergence action against SETVI for the entries that follow.
Lab book: enter the figure in %, no units written.

Pre-emergence action against SETVI for CCOC(=O)CSc1nn(-c2ccc(F)cc2F)c(-c2ccc(F)cc2)c1Br is 100

Pre-emergence action against SETVI for CCOC(=O)C(C)Sc1nn(-c2ccccc2F)c(-c2ccc(F)c(F)c2)c1Br (stereo not drawn) is 100

Pre-emergence action against SETVI for Cc1cnsc1-c1c(Br)c(SCC(=O)O)nn1-c1ccccc1F is 100

Pre-emergence action against SETVI for CCOC(=O)CNC(=O)CSc1nn(-c2ccccc2F)c(-c2ccc(F)c(F)c2)c1Br is 100

Pre-emergence action against SETVI for O=C(O)CSc1nn(-c2ccccc2F)c(-c2ccc(F)c(F)c2)c1[N+](=O)[O-] is 100

Pre-emergence action against SETVI for CCOC(=O)C[S+]([O-])c1nn(-c2ccccc2F)c(-c2cncc(F)c2)c1Br (stereo not drawn) is 100

Pre-emergence action against SETVI for CCOC(=O)CSc1nn(-c2ccccc2F)c(-c2ccc(F)nc2)c1Br is 100

Pre-emergence action against SETVI for COC(=O)CNC(=O)CSc1nn(-c2ccccc2F)c(-c2ccc(F)c(F)c2)c1Cl is 100

Pre-emergence action against SETVI for CCOC(=O)CSc1nn(-c2ccccc2F)c(-c2ccc(F)c(F)c2)c1Br is 100

Pre-emergence action against SETVI for O=C(O)CSc1nn(-c2ccccc2F)c(-c2ccc(F)c(F)c2)c1Cl is 100

Pre-emergence action against SETVI for O=C(O)CSc1nn(-c2ccccc2F)c(-c2cc(F)cc(Cl)c2)c1Br is 100

Pre-emergence action against SETVI for CCOC(=O)CSc1nn(-c2ccccc2F)c(-c2cncc(Cl)c2)c1Br is 100

Pre-emergence action against SETVI for CCOC(=O)C[S+]([O-])c1nn(-c2ccccc2F)c(-c2cncc(Cl)c2)c1Br (stereo not drawn) is 100

Pre-emergence action against SETVI for CCOC(=O)CSc1nn(-c2ccccc2F)c(-c2ccc(Cl)nc2)c1Br is 90

Pre-emergence action against SETVI for O=C(O)CSc1nn(-c2ccccc2F)c(-c2ccc(Cl)nc2)c1Br is 100

Pre-emergence action against SETVI for CCOC(=O)CSc1nn(-c2ccccc2F)c(-c2ccc(F)c(F)c2)c1C(F)(F)F is 100

Pre-emergence action against SETVI for COC(=O)CCNC(=O)CSc1nn(-c2ccccc2F)c(-c2cccnc2)c1Br is 90

Pre-emergence action against SETVI for COC(=O)CN(C)C(=O)CSc1nn(-c2ccccc2F)c(-c2ccc(F)c(F)c2)c1Cl is 100
